Record form. Attribute: MIC. Fill in for each entry.
# test.summary: Minimum inhibitory concentration (MIC) against gram negative bacteria Prot. rettgeri M-1771.
# Type: functional, Providencia rettgeri
# run.parameters: Providencia rettgeri; read-out: MIC
Numbers only, in µg/mL.

Reference set, count: 3
{"molecule": "NC1CCCN(c2c(F)cc3c(=O)c(C(=O)O)cn(C4CC4)c3c2C(F)(F)F)C1 (configuration not stated)", "unit.abbreviation": "µg/mL", "MIC": 0.4}
{"molecule": "O=C(O)c1cn(C2CC2)c2cc(N3CCNCC3)c(F)cc2c1=O", "unit.abbreviation": "µg/mL", "MIC": 0.1}
{"molecule": "NC1CCN(c2cc3c(cc2F)c(=O)c(C(=O)O)cn3C2CC2)CC1", "unit.abbreviation": "µg/mL", "MIC": 1.6}

Hi team, please reply with MIC for each item in this list.
1. CCNCC1CCN(c2cc3c(cc2F)c(=O)c(C(=O)O)cn3C2CC2)C1 (configuration not stated)
2. NC1CCN(c2cc3c(cc2F)c(=O)c(C(=O)O)cn3C2CC2)C1 (configuration not stated)
3. C[C@@H]1CN(c2c(F)cc3c(=O)c(C(=O)O)cn(C4CC4)c3c2C(F)(F)F)CCN1
4. NC1CCN(c2c(F)cc3c(=O)c(C(=O)O)cn(C4CC4)c3c2F)C1 (configuration not stated)
5. CCNCC1CCN(c2c(F)cc3c(=O)c(C(=O)O)cn(C4CC4)c3c2C(F)(F)F)C1 (configuration not stated)
6. O=C(O)c1cn(C2CC2)c2c(F)c(N3CCNCC3)c(F)cc2c1=O
7. NC1CCCN(c2c(F)cc3c(=O)c(C(=O)O)cn(C4CC4)c3c2F)C1 (configuration not stated)

RESULT:
0.8
0.1
0.8
0.1
1.6
0.1
0.2

----------
# Tested on: Pseudomonas aeruginosa
# test.summary: In vivo efficacy (s.c.) against Pseudomonas aeruginosa in mouse protection test
# Assay type: functional
# run.parameters: Pseudomonas aeruginosa, sc; read-out: PD50
Answer each item with its documented ED50.
Answers are plain numbers, in mg/kg.

Please review the entries below; each comes with its answer.
{"compound": "NC1CCN(c2cc3c(cc2F)c(=O)c(C(=O)O)cn3C2CC2)C1 (centres undefined)", "measured.property": "ED50", "unit.abbreviation": "mg/kg", "meas.value": 5.4}
{"compound": "CCNCC1CCN(c2c(F)cc3c(=O)c(C(=O)O)cn(C4CC4)c3c2F)C1 (centres undefined) [PD-117558]", "measured.property": "ED50", "unit.abbreviation": "mg/kg", "meas.value": 40}
{"compound": "NC1CCN(c2c(F)cc3c(=O)c(C(=O)O)cn(C4CC4)c3c2C(F)(F)F)C1 (centres undefined)", "measured.property": "ED50", "unit.abbreviation": "mg/kg", "meas.value": 23}
{"compound": "O=C(O)c1cn(C2CC2)c2cc(N3CCNCC3)c(F)cc2c1=O [CIPROFLOXACIN]", "measured.property": "ED50", "unit.abbreviation": "mg/kg", "meas.value": 5}
{"compound": "CCn1cc(C(=O)O)c(=O)c2cc(F)c(N3CCN(C)CC3)cc21 [PEFLOXACIN]", "measured.property": "ED50", "unit.abbreviation": "mg/kg", "meas.value": 26}

// for each compound in input: emit ED50
1. NC1CCN(c2c(F)cc3c(=O)c(C(=O)O)cn(C4CC4)c3c2F)C1 (centres undefined)
2. CCNCC1CCN(c2c(F)cc3c(=O)c(C(=O)O)cn(C4CC4)c3c2C(F)(F)F)C1 (centres undefined)
3. CCn1cc(C(=O)O)c(=O)c2cc(F)c(N3CCNCC3)cc21 [NORFLOXACIN]
4. O=C(O)c1cn(C2CC2)c2c(F)c(N3CCNCC3)c(F)cc2c1=O

RESULT:
3
46
11
2.5

----------
# Test system: Streptococcus pneumoniae
# test.summary: In vivo efficacy (orally) against Streptococcus pneumoniae SV-1 in mouse protection test
# Type: functional
# run.parameters: Streptococcus pneumoniae, po; read-out: PD50
measured.property: ED50 (mg/kg)
Give bare numbers, in mg/kg.

Consider the worked cases shown below.
{"compound": "CC1(CN)CCN(c2c(F)cc3c(=O)c(C(=O)O)cn(C4CC4)c3c2F)C1 (stereo not given)", "unit.abbreviation": "mg/kg", "ED50": 1.2}
{"compound": "CCNCC1CCN(c2c(F)cc3c(=O)c(C(=O)O)cn(C4CC4)c3c2F)C1 (stereo not given) [PD-117558]", "unit.abbreviation": "mg/kg", "ED50": 3.3}

Hey, can you go through the list below and give me ED50 for every item?
1. NC1CCN(c2c(F)cc3c(=O)c(C(=O)O)cn(C4CC4)c3c2F)CC1
2. NC1CCN(c2c(F)cc3c(=O)c(C(=O)O)cn(C4CC4)c3c2C(F)(F)F)C1 (stereo not given)

RESULT:
1: 15; 2: 25

Here CCNCC1CCN(c2c(F)cc3c(=O)c(C(=O)O)cn(C4CC4)c3c2C(F)(F)F)C1 (stereo not given) was tested on Streptococcus pneumoniae, and its ED50 came to 1.4

----------
# System: Mus musculus
# test.summary: Maximum tolerance dose was measured for phototoxic skin reaction by po administration
# Type: functional
Exercise: state measured MTD for each of the molecules provided.
Give bare numbers, in mg/kg.

{"molecule": "NC1CCCN(c2cc3c(cc2F)c(=O)c(C(=O)O)cn3C2CC2)C1 (configuration not stated)", "MTD (mg/kg)": 100}

List MTD for every entry below, keeping the order given.
1. NC1CCN(c2c(F)cc3c(=O)c(C(=O)O)cn(C4CC4)c3c2F)C1 (configuration not stated)
2. CCn1cc(C(=O)O)c(=O)c2cc(F)c(N3CCN(C)CC3)cc21

RESULT:
[6, 300]

Hey, quick one: what's MTD for each of these?
1. CCNCC1CCN(c2c(F)cc3c(=O)c(C(=O)O)cn(C4CC4)c3c2F)C1 (configuration not stated)
2. C[C@@H]1CN(c2cc3c(cc2F)c(=O)c(C(=O)O)cn3C2CC2)CCN1

RESULT:
1. 30
2. 100

# map each molecule to its MTD
1. CC1(CN)CCN(c2c(F)cc3c(=O)c(C(=O)O)cn(C4CC4)c3c2F)C1 (configuration not stated)
2. NC1CCN(c2cc3c(cc2F)c(=O)c(C(=O)O)cn3C2CC2)C1 (configuration not stated)
3. C[C@@H]1CN(c2c(F)cc3c(=O)c(C(=O)O)cn(C4CC4)c3c2C(F)(F)F)CCN1

RESULT:
[30, 300, 100]

Provide MTD values for the following items, in order.
1. NC1CCN(c2c(F)cc3c(=O)c(C(=O)O)cn(C4CC4)c3c2C(F)(F)F)CC1
2. NC1CCN(c2c(F)cc3c(=O)c(C(=O)O)cn(C4CC4)c3c2C(F)(F)F)C1 (configuration not stated)
3. CC1(CN)CCN(c2c(F)cc3c(=O)c(C(=O)O)cn(C4CC4)c3c2C(F)(F)F)C1 (configuration not stated)

RESULT:
1: 100; 2: 300; 3: 100

I would be grateful if you could provide MTD for each of the following entries.
1. CCn1cc(C(=O)O)c(=O)c2cc(F)c(N3CCNCC3)cc21
2. CCNCC1CCN(c2c(F)cc3c(=O)c(C(=O)O)cn(C4CC4)c3c2C(F)(F)F)C1 (configuration not stated)
3. NC1CCN(c2c(F)cc3c(=O)c(C(=O)O)cn(C4CC4)c3c2F)CC1
4. CCNCC1CCN(c2cc3c(cc2F)c(=O)c(C(=O)O)cn3C2CC2)C1 (configuration not stated)
5. NC1CCN(c2cc3c(cc2F)c(=O)c(C(=O)O)cn3C2CC2)CC1

RESULT:
1. 300
2. 100
3. 100
4. 100
5. 100

// for each molecule below, give its MTD
1. O=C(O)c1cn(C2CC2)c2c(F)c(N3CCNCC3)c(F)cc2c1=O
2. C[C@@H]1CN(c2c(F)cc3c(=O)c(C(=O)O)cn(C4CC4)c3c2F)CCN1
3. NC1CCCN(c2c(F)cc3c(=O)c(C(=O)O)cn(C4CC4)c3c2C(F)(F)F)C1 (configuration not stated)

RESULT:
100
30
100

For each listed entry, give its MTD.
1. O=C(O)c1cn(C2CC2)c2cc(N3CCNCC3)c(F)cc2c1=O
2. CC1(CN)CCN(c2cc3c(cc2F)c(=O)c(C(=O)O)cn3C2CC2)C1 (configuration not stated)
3. NC1CCCN(c2c(F)cc3c(=O)c(C(=O)O)cn(C4CC4)c3c2F)C1 (configuration not stated)

RESULT:
1: 300; 2: 100; 3: 100

----------
Answer each item with its documented MIC.
# System: Klebsiella pneumoniae
# test.summary: Minimum inhibitory concentration (MIC) against gram negative bacteria Klebsiella pneumoniae MGH-2.
# Format: functional
# run.parameters: Klebsiella pneumoniae; read-out: MIC
Answers are plain numbers, in µg/mL.

# count of solved cases: 3
{"compound": "CCNCC1CCN(c2cc3c(cc2F)c(=O)c(C(=O)O)cn3C2CC2)C1 (stereo not given)", "measured.on": "Klebsiella pneumoniae", "unit.abbreviation": "µg/mL", "MIC": 0.2}
{"compound": "NC1CCCN(c2c(F)cc3c(=O)c(C(=O)O)cn(C4CC4)c3c2F)C1 (stereo not given)", "measured.on": "Klebsiella pneumoniae", "unit.abbreviation": "µg/mL", "MIC": 0.2}
{"compound": "CC1(CN)CCN(c2cc3c(cc2F)c(=O)c(C(=O)O)cn3C2CC2)C1 (stereo not given)", "measured.on": "Klebsiella pneumoniae", "unit.abbreviation": "µg/mL", "MIC": 0.2}

Count: 8. Required value per item: MIC.
1. NC1CCCN(c2c(F)cc3c(=O)c(C(=O)O)cn(C4CC4)c3c2C(F)(F)F)C1 (stereo not given)
2. CCn1cc(C(=O)O)c(=O)c2cc(F)c(N3CCN(C)CC3)cc21
3. CCNCC1CCN(c2c(F)cc3c(=O)c(C(=O)O)cn(C4CC4)c3c2F)C1 (stereo not given)
4. C[C@@H]1CN(c2c(F)cc3c(=O)c(C(=O)O)cn(C4CC4)c3c2C(F)(F)F)CCN1
5. CCn1cc(C(=O)O)c(=O)c2cc(F)c(N3CCNCC3)cc21
6. C[C@@H]1CN(c2cc3c(cc2F)c(=O)c(C(=O)O)cn3C2CC2)CCN1
7. NC1CCN(c2cc3c(cc2F)c(=O)c(C(=O)O)cn3C2CC2)CC1
8. O=C(O)c1cn(C2CC2)c2cc(N3CCNCC3)c(F)cc2c1=O

RESULT:
1. 0.2
2. 0.05
3. 0.2
4. 0.4
5. 0.05
6. 0.05
7. 0.8
8. 0.05
